Entry source: patent US20240182561A1

target: T1, nanodisc embedded human CACNG1 expressed with a C-terminal PADRE-Flag-His tag (human, UniProt Q06432 1-222); assay: SPR, anti-His-captured nanodisc, 25 C
T1 construct: Captured on an anti-His Biacore surface; also called human CACNG1 nanodisc; CACNG1 nanodisc; not shown: C-terminal tag
T1 sequence (Q06432 whole entry): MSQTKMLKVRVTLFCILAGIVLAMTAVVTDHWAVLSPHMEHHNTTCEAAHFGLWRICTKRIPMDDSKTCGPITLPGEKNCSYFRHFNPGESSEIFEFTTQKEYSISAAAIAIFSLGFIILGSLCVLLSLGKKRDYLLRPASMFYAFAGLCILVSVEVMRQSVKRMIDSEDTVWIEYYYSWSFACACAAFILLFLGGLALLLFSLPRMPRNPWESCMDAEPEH

{"binder": "REGN7660 (antibody, human IgG4 S228P, kappa, V domains shown, hIgG4) VH: EVQLVESGGGLVQPGGSLKLSCTASGLTLSDSAMHWVRQASGKGLEWVGRIRNKANRYATEYAASVKGRFTISRDDSKNTAYLQMNSLKTEDTAVYYCTRNWKIFLFDYWGQGTLVTVSS VL: EIVLTQSPGTLTLSPGERATLSCRASQSVGSKYLAWFQQKRGQAPRLLIYGASSRTSGIPDRISGSGSGTDFTLTISRLEPEDFAVYYCQQYGSSPWTFGQGTKVEIKR", "measurement_unit": "M⁻¹ s⁻¹", "kon": "1.93e+06"}
{"binder": "H2aM31944N (antibody, mouse IgG2a, kappa, V domains shown, mIgG2a; also called CACNG1 mIgG2a antibody) VH: QVQLVESGGGVVQPGRSLRLSCEASGITFRNYGMHWVRQAPGKGLEWVAVMWYDGSNKYYADSVKGRFTISRDNSKNTVYLQMNSLRAEDTAVYYCARRGHIATAAPFDYWGQGTLVTVSS VL: DIQMTQSPSSLSASVGDRVTISCRASQSISSYLNWYQQKPGKAPKVLMYAASSLQSGVPSRFSGSGSGTDFTLTISSLQPEDFATYYCQQSYSTPPITFGQGTRLEIKR", "measurement_unit": "M⁻¹ s⁻¹", "kon": 231000}
{"binder": "REGN9908 (antibody, mouse IgG2b, V domains shown, mIgG2b) VH: EVQLLESGGGLAQPGGSLRLSCAASGFTFSSYAMSWVRQAPGKGLEWVSSVSGSGGTTYYAASVKGRFTVSRDNSKKTLYLQMNSLRAEDTAVYYCGKGGYCSSSGCRHYGMDVWGQGTTVTVSA VL: QSVLTQPPSASGTPGQRVAISCSGSNSNIGNNYLYWYQQIPGTTPKLLIYRNNQRPSGVPDRFSASKSGTSASLAISGLRSGDEADYYCAAWDDSLSGYVFGTGTKVTVLG", "measurement_unit": "M⁻¹ s⁻¹", "kon": 419000}
{"binder": "H2aM31941N (antibody, mouse IgG1, kappa, V domains shown, Both names are treated as one molecule; also called H1M31941N; lot H1M31941N-L1) VH: QVQLVQSGAEVKKPGASVKVSCKASGYAFTTYGITWVRQAPGQGLEWMGWISAYNGNTNYAEKVQGRFTMTTDTSTNTAYMELRSLRSDDTAVYFCARKGHYGSGTYYNPFGFDFWGQGTMVTVSS VL: EIMLMQSPGTLSLSPGERATLSCRASQSVSSSYLAWYQQKPGQAPRLLIYGASSRATDIPDRFSGSGSGTDFTLTISRLEPEDFAVYFCQQYYGSPWTFGQGTKVEIKR", "measurement_unit": "M⁻¹ s⁻¹", "kon": 342000}
